Test system: RAW264.7
Assay name: Antiinflammatory activity in mouse RAW264.7 cells assessed as inhibition of LPS-induced COX2 protein expression at 10 uM by Western blotting analysis
Type: functional
Measured attribute: COX-2 expression (% of LPS control) at 10 µM (%)
All answers are understood in %, so give the number only.

# Compound, Measurement target, Assay result
data = [
    ("C[C@@H]([C@H]1CC[C@H]2[C@@H]3CCC4=CC(=O)C=C[C@]4(C)[C@H]3CC[C@]12C)[C@H]1CC[C@H](C)C(=O)O1 [MINABEOLIDE 4]", "RAW264.7", 22.4),
    ("CC1=C(C)C(=O)O[C@@H]([C@@H](C)[C@H]2CC[C@H]3[C@@H]4CCC5=CC(=O)C=C[C@]5(C)[C@H]4CC[C@]23C)C1 [MINABEOLIDE 1]", "RAW264.7", 18.3),
    ("CC(=O)OC[C@]12CC[C@H]3[C@@H](CCC4=CC(=O)C=C[C@@]43C)[C@@H]1CC[C@@H]2[C@H](C)[C@H]1CC(C)=C(C)C(=O)O1 [MINABEOLIDE 2]", "RAW264.7", 51.2),
]

Ask: Answer with the recorded COX-2 expression (% of LPS control) at 10 µM for the compound listed here: CC(=O)OC[C@]12CC[C@H]3[C@@H](CCC4=CC(=O)C=C[C@@]43C)[C@@H]1CC[C@@H]2[C@H](C)[C@H]1CC[C@H](C)C(=O)O1 [MINABEOLIDE 5]
Reply: 31.3
